# Target under test: KRAS^G12C::SOS1 (Homo sapiens, UniProt Q07889)
# Sequence (Q07889 whole entry, stated change not applied): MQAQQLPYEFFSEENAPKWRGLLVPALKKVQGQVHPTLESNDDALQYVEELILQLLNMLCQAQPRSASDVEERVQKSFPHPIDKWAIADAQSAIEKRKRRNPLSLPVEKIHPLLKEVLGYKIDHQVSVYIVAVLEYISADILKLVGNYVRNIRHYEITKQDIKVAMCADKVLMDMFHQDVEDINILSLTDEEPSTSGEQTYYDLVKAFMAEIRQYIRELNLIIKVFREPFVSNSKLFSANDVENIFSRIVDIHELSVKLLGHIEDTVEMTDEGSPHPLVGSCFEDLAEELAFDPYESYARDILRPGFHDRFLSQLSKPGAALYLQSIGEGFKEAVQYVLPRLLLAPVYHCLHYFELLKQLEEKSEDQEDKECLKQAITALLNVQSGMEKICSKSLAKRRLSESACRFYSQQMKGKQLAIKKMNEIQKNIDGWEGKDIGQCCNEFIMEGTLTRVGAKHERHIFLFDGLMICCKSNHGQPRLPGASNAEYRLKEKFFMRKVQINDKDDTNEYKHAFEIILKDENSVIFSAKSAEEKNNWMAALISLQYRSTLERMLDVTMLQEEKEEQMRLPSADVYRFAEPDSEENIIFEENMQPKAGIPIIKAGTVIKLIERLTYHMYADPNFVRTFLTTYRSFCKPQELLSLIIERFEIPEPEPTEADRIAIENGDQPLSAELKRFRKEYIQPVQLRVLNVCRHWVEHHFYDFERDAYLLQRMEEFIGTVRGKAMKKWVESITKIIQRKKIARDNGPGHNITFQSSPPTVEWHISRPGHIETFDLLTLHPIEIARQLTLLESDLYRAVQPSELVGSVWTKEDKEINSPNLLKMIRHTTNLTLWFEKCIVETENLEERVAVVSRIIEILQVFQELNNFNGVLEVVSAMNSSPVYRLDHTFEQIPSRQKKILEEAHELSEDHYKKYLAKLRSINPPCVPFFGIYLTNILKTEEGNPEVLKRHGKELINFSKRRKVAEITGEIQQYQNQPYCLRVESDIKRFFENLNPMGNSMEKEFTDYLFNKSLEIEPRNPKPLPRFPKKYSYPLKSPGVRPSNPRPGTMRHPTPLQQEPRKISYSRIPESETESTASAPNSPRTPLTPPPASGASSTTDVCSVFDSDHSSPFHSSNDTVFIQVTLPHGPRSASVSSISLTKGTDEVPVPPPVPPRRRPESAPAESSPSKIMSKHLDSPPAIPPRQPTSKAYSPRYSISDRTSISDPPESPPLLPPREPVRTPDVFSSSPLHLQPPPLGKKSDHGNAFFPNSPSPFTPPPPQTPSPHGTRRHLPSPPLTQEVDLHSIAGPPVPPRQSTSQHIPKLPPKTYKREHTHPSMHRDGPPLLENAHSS
# Test details: KRAS G12C::SOS1 protein-protein interaction (PPI) inhibition assay (HTRF binding kit)
# Condition description: max inhibitor concentration 3 μM, three replicates, IC50 class
Readout label: IC50

Cc1c([C@@H](C)NC(=O)c2ccc(=O)n(-c3ccccc3F)n2)cc(N)cc1C(F)(F)F    < 1 µM
C[C@@H](NC(=O)c1ccc(=O)n(-c2ccc(F)c(-c3cnnn3C)c2)n1)c1cccc(C(F)(F)CO)c1F    < 1 µM
C[C@@H](NC(=O)c1ccc(=O)n(-c2cccc(C(C)(C)O)c2)n1)c1cc(N)cc(C(F)(F)F)c1    < 1 µM
Cc1cnnn1-c1cccc(-n2nc(C(=O)N[C@H](C)c3cc(N)cc(C(F)(F)F)c3)ccc2=O)c1    < 1 µM
C[C@@H](NC(=O)c1ccc(=O)n(-c2cncc(-c3cnnn3C)c2)n1)c1cc(N)cc(C(F)(F)F)c1    < 1 µM

## Task Give recorded IC50. C[C@@H](NC(=O)c1ccc(=O)n(-c2ccc(F)c(-c3cnnn3C)c2)n1)c1cc(N)cc(C(F)(F)F)c1
## Result < 1 µM

## Task Give recorded IC50. C[C@@H](NC(=O)c1ccc(=O)n(-c2cccc(-c3cnoc3)c2)n1)c1cc(N)cc(C(F)(F)F)c1
## Result < 1 µM

## Task Give recorded IC50. C[C@@H](NC(=O)c1ccc(=O)n(-c2cccc(C(=O)O)c2)n1)c1cc(N)cc(C(F)(F)F)c1
## Result < 1 µM

## Task Give recorded IC50. C[C@@H](NC(=O)c1ccc(=O)n(-c2cc(F)cc(-c3cnnn3C)c2)n1)c1cc(N)cc(C(F)(F)F)c1
## Result < 1 µM

## Task Give recorded IC50. [2H]C([2H])([2H])n1nncc1-c1cccc(-n2nc(C(=O)N[C@H](C)c3cccc(C(F)(F)CO)c3F)ccc2=O)c1
## Result < 1 µM

## Task Give recorded IC50. C[C@@H](NC(=O)c1ccc(=O)n(-c2cc(-c3cnnn3C)ccc2F)n1)c1cc(N)cc(C(F)(F)F)c1
## Result < 1 µM

## Task Give recorded IC50. C[C@@H](NC(=O)c1ccc(=O)n(-c2ccc(OC(F)(F)F)cc2)n1)c1cc(N)cc(C(F)(F)F)c1
## Result < 1 µM

## Task Give recorded IC50. C[C@@H](NC(=O)c1ccc(=O)n(-c2ccccc2F)n1)c1ccc(Br)s1
## Result < 1 µM

## Task Give recorded IC50. C[C@@H](NC(=O)c1ccc(=O)n(-c2cccc(-c3cnnn3C)c2)n1)c1cccc(C(F)(F)CO)c1F
## Result < 1 µM

## Task Give recorded IC50. C[C@@H](NC(=O)c1ccc(=O)n(-c2ccncc2F)n1)c1cc(N)cc(C(F)(F)F)c1
## Result < 1 µM

## Task Give recorded IC50. Cc1cnnn1-c1cccc(-n2cc(C(=O)N[C@H](C)c3cc(N)cc(C(F)(F)F)c3)ccc2=O)c1
## Result < 1 µM

## Task Give recorded IC50. CNCc1ccc(Cl)cc1-c1ccc([C@@H](C)NC(=O)c2ccc(=O)n(-c3cccnc3)c2)s1
## Result < 1 µM

## Task Give recorded IC50. C[C@@H](NC(=O)c1ccc(=O)n(-c2cccc(-c3ccccc3)c2)n1)c1cc(N)cc(C(F)(F)F)c1
## Result 1 to 10 µM

---

IC50 values, listed per item
# Target under test: SOS1 (Homo sapiens)
# Construct: adding equal amounts of HIS—SOS1cat (160 nM; Cytoskeleton, US); His (N)
# Sequence (Q07889 564-1049 limits assumed): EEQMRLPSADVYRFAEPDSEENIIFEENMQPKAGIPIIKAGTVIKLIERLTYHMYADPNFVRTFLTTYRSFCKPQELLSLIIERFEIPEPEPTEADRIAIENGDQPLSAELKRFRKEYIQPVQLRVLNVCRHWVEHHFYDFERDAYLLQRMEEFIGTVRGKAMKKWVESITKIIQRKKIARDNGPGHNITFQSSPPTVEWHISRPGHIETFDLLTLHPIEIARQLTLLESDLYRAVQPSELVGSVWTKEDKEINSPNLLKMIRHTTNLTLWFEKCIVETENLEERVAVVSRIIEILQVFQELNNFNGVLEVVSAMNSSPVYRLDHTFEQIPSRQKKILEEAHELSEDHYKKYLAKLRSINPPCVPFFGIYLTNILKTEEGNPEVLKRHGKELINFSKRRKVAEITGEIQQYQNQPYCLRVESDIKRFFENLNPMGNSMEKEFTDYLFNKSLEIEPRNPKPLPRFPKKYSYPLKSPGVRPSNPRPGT
# Test details: SOS-catalyzed nucleotide exchange assay (HTRF, SOS1-mediated GTP loading of KRAS G12D)
# Condition description: GST-KRAS G12D, HIS-SOS1cat, IC50 class

C[C@@H](NC(=O)c1ccc(=O)n(-c2ccc(-c3ccccc3)cc2)n1)c1cc(N)cc(C(F)(F)F)c1 [Example 24]    1 to 10 µM
CC(=O)N1CCC(n2nc(C(=O)N[C@H](C)c3cc(N)cc(C(F)(F)F)c3)ccc2=O)CC1 [Example 118]    1 to 10 µM
C[C@@H](NC(=O)c1ccc(=O)n(-c2ccc(OC(F)(F)F)cc2)n1)c1cc(N)cc(C(F)(F)F)c1 [Example 154]    1 to 10 µM

## Task Give recorded IC50. C[C@@H](NC(=O)c1ccc(=O)n(-c2cccc(-c3ccnn3C)c2)c1)c1cccc(C(F)(F)CO)c1F [Example 78]
## Result < 1 µM
